Target: T1, Cynomolgus CD3εδ Fc heterodimer (Cy CD3ε Fc / CD3δ Fc-HIS) (cynomolgus, UniProt Q95LI8 22-100)
T1 chain 1: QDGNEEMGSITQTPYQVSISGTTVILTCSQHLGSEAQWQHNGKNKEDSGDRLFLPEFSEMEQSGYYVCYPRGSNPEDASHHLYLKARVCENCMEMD
T1 chain 2: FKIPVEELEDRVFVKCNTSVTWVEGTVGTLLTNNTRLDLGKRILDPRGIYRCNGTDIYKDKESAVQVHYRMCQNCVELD
Test: BLI (Octet), IgG on AHC sensor, pH 6.0
Listed below: koff values for each entry.
RESULT TYPE: koff (s⁻¹)

SAD10319_P05_G03 (ADI-57415) (antibody, V domains shown, IgG; also called Ab143) VH: QVQLVQSGAEVKKPGASVKVSCKASGYTFHSYNMHWVRQAPGHRLEWMGWINPDTGATDYSQKFQGRVTITRDTSASTAYMELSSLRSEDTAVYYCARDAYGRYFYDVWGQGTLVTVSS VL: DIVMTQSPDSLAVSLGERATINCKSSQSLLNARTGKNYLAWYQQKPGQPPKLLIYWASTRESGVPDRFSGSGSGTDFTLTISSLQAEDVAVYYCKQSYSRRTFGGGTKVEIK
0.0167
SAD10320_P04_G11 (ADI-57390) (antibody, V domains shown, IgG; also called Ab115) VH: QVQLVQSGAEVKKPGASVKVSCKASGFNIKDYYMHWVRQAPGQRLEWMGWIDLENANTIYDAKFQGRVTITRDTSASTAYMELSSLRSEDTAVYYCARDAYRHEFYDVWGQGTLVTVSS VL: DIVMTQSPDSLAVSLGERATINCKSSQSLLNARTGKNYLAWYQQKPGQPPKLLIYWASTRESGVPDRFSGSGSGTDFTLTISSLQAEDVAVYYCKQSYYHRTFGGGTKVEIK
0.00276
SAD10320_P02_E05 (ADI-57366) (antibody, V domains shown, IgG; also called Ab78) VH: QVQLVQSGAEVKKPGASVKVSCKASGFNIKDYYMHWVRQAPGQRLEWMGWIDLENANTIYDAKFQGRVTITRDTSASTAYMELSSLRSEDTAVYYCARDMHGRYFYDVWGQGTLVTVSS VL: DIVMTQSPDSLAVSLGERATINCKSSQSLLNARTGKNYLAWYQQKPGQPPKLLIYWASTRESGVPDRFSGSGSGTDFTLTISSLQAEDVAVYYCKQSEHRRTFGGGTKVEIK
0.00318
